Hello, the source for this data is patent US20250250357A1, in case you need it.

MEASURED ON: T1, human MSLN-R1-his protein (human, UniProt Q13421 296-390)
T1 construct: Region 1 of human mesothelin, made in HEK293E cells, His-tagged; also called human MSLN-R1 protein; hMSLN-R1-his; not shown: His tag
T1 chain: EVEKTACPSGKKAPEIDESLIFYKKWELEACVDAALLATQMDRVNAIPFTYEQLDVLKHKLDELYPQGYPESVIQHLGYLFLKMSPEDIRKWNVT
ASSAY DETAILS: ELISA on coated MSLN-R1; antibody 0.1 nM
EXPERIMENTAL READOUT: OD450 (OD450)
Kindly provide the numeric value in OD450 only, without the unit symbol.

Some solved entries appear below for comparison.
BINDER	EXPERIMENTAL READOUT	ASSAY RESULT
S009-F8-32.3 (antibody, human IgG1, kappa, V domains shown) VH: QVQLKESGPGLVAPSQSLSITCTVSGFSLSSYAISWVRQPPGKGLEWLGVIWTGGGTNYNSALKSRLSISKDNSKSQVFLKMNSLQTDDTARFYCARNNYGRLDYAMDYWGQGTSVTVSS VL: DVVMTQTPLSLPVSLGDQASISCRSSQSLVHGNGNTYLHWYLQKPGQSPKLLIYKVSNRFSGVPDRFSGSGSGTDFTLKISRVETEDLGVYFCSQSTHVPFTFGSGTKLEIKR	OD450	1.64
S009-F8-29.1 (antibody, human IgG1, kappa, V domains shown) VH: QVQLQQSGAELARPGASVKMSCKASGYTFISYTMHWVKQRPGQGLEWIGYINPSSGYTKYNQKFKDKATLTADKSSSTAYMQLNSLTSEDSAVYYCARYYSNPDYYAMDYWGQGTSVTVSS VL: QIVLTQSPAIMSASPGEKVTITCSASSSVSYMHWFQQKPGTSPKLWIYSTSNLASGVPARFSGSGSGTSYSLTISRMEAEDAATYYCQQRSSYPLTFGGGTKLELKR	OD450	0.04
S009-F8-4.5 (antibody, human IgG1, kappa, V domains shown) VH: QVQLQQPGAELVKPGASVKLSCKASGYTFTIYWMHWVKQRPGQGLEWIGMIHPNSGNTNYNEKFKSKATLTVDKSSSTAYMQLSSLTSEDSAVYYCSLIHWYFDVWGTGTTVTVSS VL: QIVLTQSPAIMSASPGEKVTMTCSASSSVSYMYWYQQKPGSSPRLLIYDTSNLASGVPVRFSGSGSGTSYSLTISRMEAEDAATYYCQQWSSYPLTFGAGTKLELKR	OD450	0.05
S009-F8-9.16 (antibody, human IgG1, kappa, V domains shown) VH: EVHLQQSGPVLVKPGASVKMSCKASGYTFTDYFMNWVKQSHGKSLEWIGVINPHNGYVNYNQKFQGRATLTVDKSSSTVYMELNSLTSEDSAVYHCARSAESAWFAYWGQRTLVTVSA VL: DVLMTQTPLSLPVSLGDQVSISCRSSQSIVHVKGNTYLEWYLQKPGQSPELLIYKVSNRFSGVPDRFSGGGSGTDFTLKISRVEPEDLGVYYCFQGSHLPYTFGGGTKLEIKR	OD450	0.04

# evaluate next
# query: OD450 of entry S009-F8-12.13 (antibody, human IgG1, kappa, V domains shown) VH: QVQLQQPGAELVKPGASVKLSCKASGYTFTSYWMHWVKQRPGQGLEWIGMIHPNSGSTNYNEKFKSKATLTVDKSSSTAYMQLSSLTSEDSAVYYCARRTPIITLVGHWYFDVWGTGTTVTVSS VL: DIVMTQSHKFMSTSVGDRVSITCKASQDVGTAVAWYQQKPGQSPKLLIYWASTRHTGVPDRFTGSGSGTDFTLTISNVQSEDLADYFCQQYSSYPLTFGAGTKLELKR
1.97
